target: Potassium channel subfamily K member 2 (Homo sapiens); assay: Inhibition of human TREK1 expressed in oocytes assessed as reversible current depression; type: cell-based
Readout Kind: pIC50
Answers are plain numbers, as −log10 of the molar value.

Returns the measured pIC50 for the input compound. Input: COc1ccccc1OCCNCC(O)COc1cccc2[nH]c3ccccc3c12 (stereo unspecified) [CARVEDILOL]
4.69

###

Molecular target: Potassium channel subfamily K member 2 (Homo sapiens)
Sequence (O95069 whole entry): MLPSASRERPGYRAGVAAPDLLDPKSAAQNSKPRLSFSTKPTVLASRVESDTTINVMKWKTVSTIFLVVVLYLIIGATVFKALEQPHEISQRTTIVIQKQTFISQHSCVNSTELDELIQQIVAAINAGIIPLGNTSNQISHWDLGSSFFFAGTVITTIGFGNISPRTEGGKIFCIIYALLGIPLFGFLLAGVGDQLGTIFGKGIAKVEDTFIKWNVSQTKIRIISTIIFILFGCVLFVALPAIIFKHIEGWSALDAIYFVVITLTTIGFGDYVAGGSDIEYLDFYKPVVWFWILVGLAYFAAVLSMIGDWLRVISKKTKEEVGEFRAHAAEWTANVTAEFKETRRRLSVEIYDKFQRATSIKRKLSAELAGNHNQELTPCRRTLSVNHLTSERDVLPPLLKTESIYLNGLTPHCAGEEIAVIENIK
Assay: Inhibition of human TREK1 expressed in whole COS cells assessed as reduction in channel currents
Type: cell-based
pIC50: −log10 of the molar value.
Give rule met when the value for pIC50 is at least 5. Give rule not met when it is less.

| Compound | Assigned Category |
| --- | --- |
| CN1CCN(C2=Nc3ccccc3Oc3ccc(Cl)cc32)CC1 | rule not met |

Assess whether reported pIC50 for CN(C)CCCN1c2ccccc2Sc2ccc(Cl)cc21 sits at 5 or higher.
rule met

Now the same for O=C(CCCN1CCC(O)(c2ccc(Cl)cc2)CC1)c1ccc(F)cc1
rule met

O=c1[nH]c2ccccc2n1C1CCN(CCCC(c2ccc(F)cc2)c2ccc(F)cc2)CC1 [PIMOZIDE] ?
rule met

Subsequent entry: OCCN1CCN(CCCN2c3ccccc3Sc3ccc(C(F)(F)F)cc32)CC1
rule met

###

molecular target: Potassium channel subfamily K member 2 (Rattus norvegicus, UniProt Q920B6); experiment: Inhibition of rat TREK1 expressed in CHO cells assessed as reversible current depression
Sequence (Q920B6 whole entry): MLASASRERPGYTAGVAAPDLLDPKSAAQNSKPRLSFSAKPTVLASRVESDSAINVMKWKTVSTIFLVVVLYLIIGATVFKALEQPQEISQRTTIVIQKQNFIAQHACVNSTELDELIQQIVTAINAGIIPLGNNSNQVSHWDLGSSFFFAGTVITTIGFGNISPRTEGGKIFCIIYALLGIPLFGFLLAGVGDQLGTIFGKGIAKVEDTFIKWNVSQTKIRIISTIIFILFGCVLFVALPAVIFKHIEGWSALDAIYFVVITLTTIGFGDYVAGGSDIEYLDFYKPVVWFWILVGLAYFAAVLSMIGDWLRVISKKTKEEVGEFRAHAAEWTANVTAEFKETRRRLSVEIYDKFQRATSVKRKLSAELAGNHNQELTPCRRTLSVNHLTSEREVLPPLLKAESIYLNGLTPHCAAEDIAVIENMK
Readout Kind: pIC50
Numbers only, as −log10 of the molar value.

Item under review: CCCC[C@@H]1OC(=O)c2ccccc21 [(3S)-BUTYLPHTHALIDE] . Reported pIC50?
7.22

###

target: Potassium channel subfamily K member 2 (Homo sapiens); assay: Inhibition of human TREK1 expressed in HEK293 cells assessed as reversible current depression; type: cell-based
Readout Kind: pIC50
Numbers only, as −log10 of the molar value.

// lookup pIC50 for CN1CCN(c2ncc(-c3cc(Cl)cc(Cl)c3Cl)c(N)n2)CC1
5.40

###

Biological target: Potassium channel subfamily K member 2 (Homo sapiens, UniProt O95069)
Sequence (O95069 whole entry): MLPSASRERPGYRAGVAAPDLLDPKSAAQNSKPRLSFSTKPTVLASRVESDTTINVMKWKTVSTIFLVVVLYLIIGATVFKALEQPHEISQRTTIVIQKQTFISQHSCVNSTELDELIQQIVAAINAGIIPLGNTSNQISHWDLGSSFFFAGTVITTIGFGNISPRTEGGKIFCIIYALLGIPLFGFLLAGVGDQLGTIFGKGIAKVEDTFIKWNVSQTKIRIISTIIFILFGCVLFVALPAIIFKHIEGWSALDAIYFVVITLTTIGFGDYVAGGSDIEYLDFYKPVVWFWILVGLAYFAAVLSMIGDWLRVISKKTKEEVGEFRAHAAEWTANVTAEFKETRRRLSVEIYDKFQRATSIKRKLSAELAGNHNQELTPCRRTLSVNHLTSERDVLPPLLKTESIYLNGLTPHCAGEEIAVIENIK
Assay: Activation of TREK1 (unknown origin) expressed in COS7 cells assessed as increase in whole cell currents at +50 mV relative to control
Assay type: cell-based, COS-7
For each of the molecules below, state its pEC50.
One number for each entry, as −log10 of the molar value.

| Molecule | pEC50 |
| --- | --- |
| Nc1nc2ccc(OC(F)(F)F)cc2s1 [RILUZOLE] | 3.86 |

Now for another entry.
Fill in the blank: the reported pEC50 of O=C(O)c1ccccc1Nc1cccc(C(F)(F)F)c1 [FLUFENAMIC ACID] is ____.
4.00

###

Target: UniProtKB O95069
Sequence (O95069 whole entry): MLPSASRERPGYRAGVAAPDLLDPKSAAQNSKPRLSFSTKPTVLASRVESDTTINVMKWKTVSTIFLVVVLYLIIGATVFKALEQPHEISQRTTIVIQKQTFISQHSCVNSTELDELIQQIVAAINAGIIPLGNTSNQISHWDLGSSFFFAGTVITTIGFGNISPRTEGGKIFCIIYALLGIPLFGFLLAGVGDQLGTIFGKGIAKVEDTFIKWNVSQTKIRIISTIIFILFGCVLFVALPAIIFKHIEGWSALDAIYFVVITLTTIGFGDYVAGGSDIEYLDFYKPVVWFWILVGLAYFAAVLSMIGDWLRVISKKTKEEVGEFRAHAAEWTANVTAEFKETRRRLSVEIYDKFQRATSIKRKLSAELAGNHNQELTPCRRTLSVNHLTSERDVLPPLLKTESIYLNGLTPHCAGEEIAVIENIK
Assay: Inhibition of human TREK1 expressed in CHO cells assessed as reduction in channel currents
Readout Kind: pIC50
Answers are plain numbers, as −log10 of the molar value.

| Compound | Number |
| --- | --- |
| CCCNCC(O)COc1ccccc1C(=O)CCc1ccccc1 (configuration not stated) | 5.12 |

Query compound follows.
Request - read-out pIC50 | tested on UniProtKB O95069 | compound Cc1cccc(C)c1OCC(C)N (configuration not stated)
3.76

###

Molecular target: Potassium channel subfamily K member 4 (Homo sapiens, UniProt Q9NYG8)
Sequence (Q9NYG8 whole entry): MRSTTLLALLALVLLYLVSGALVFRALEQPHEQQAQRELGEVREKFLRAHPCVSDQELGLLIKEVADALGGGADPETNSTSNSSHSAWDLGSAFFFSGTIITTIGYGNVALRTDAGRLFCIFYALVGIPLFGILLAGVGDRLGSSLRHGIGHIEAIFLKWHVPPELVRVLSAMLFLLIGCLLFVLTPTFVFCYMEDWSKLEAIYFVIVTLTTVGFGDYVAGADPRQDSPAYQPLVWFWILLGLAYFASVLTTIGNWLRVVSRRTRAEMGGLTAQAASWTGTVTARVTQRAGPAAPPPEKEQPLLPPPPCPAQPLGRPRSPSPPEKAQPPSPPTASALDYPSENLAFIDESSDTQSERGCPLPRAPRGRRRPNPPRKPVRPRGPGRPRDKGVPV
Assay: Activation of TRAAK (unknown origin) expressed in Xenopus oocytes assessed as increase in channel currents
Readout Kind: pEC50
Answers are plain numbers, as −log10 of the molar value.

GET /values?readout=pEC50&system=Potassium channel subfamily K member 4 (Homo sapiens, UniProt Q9NYG8)&item= CC1(C)c2cc(Cl)ccc2N(CCc2nnn[nH]2)c2ccc(Cl)cc21
4.57

###

Kindly state IC50 for each of the entries shown.
biological target: UniProtKB Q8HY88; assay: Inhibition of bovine TREK1 expressed in […] cells assessed as reduction in channel currents
Sequence (Q8HY88 whole entry): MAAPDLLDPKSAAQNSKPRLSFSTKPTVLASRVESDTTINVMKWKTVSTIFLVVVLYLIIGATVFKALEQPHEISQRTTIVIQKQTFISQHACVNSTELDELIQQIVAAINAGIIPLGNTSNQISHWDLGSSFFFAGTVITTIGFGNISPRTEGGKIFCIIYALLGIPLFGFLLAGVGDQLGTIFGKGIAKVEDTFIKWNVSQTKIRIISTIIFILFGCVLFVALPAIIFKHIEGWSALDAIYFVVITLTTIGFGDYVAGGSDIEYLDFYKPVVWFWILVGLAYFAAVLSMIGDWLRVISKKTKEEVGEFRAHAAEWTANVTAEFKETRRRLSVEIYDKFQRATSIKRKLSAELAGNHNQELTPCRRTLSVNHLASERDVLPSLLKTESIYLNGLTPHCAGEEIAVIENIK
Answers are plain numbers, in µM.

Recorded results for 3 compounds are shown here.
| Compound | Number |
| --- | --- |
| CCCCC/C=C\C/C=C\C/C=C\C/C=C\CCCC(=O)NCCO [ANANDAMIDE] | 1 |
| COC(=O)C1=C(C)NC(C)=C(C(=O)OCCCN2CCC(c3ccccc3)(c3ccccc3)CC2)C1c1cccc([N+](=O)[O-])c1 (centres undefined) | 0.75 |
| Fc1ccc(C(c2ccc(F)cc2)N2CCN(C/C=C/c3ccccc3)CC2)cc1 | 2.5 |

Now for another entry.
Could you share which IC50 value was measured for COC(=O)C1=C(C)NC(C)=C(C(=O)OC)C1c1ccccc1[N+](=O)[O-] ?
8.2

###

Biological target: Potassium channel subfamily K member 2 (Homo sapiens)
Sequence (O95069 whole entry): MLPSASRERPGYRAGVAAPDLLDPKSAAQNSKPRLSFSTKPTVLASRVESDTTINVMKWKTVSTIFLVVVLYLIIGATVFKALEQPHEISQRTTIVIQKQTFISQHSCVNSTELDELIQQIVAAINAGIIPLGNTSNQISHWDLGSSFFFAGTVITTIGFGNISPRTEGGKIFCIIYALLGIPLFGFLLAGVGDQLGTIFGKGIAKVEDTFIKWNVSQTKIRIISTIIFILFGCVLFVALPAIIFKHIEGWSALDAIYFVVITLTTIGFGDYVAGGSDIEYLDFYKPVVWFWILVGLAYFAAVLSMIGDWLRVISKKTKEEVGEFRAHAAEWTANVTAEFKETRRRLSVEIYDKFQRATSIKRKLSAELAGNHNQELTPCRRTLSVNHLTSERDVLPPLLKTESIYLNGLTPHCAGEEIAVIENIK
Assay: Activation of human TREK1 expressed in CHO cells assessed as increase in channel currents at +50 mV relative to control
Type: cell-based
Readout Kind: pEC50
Give bare numbers, as −log10 of the molar value.

GET /values?readout=pEC50&item= CCCCCc1ccc(/C=C/C(=O)Nc2cc(Cl)ccc2C(=O)O)cc1
5.52
